# IC50 listing for each entry below
# target: m4 receptor (Homo sapiens, UniProt P08173)
# Sequence (P08173 whole entry): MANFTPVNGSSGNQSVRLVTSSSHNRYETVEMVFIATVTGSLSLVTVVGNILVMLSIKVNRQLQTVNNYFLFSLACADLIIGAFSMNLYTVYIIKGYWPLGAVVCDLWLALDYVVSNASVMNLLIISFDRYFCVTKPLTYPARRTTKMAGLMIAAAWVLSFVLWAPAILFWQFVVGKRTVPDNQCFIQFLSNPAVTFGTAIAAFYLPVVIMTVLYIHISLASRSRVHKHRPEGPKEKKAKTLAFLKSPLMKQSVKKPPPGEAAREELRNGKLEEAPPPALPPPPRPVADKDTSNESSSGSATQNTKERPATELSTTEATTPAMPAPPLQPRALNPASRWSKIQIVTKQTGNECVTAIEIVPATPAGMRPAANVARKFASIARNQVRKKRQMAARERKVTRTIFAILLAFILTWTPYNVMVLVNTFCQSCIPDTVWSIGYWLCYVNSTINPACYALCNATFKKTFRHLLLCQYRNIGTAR

Illustrative cases are given below, each with its answer.
In [3]: df
Out[3]:
                                   compound  data_value
0     CCN1CCC(c2ccccc2)=C(C(=O)N(C)C)C1 [C]     13.5 µM
1  CCN1CCC(c2ccccc2)=C(C(=O)OC(C)C)C1 [Example 4]    0.643 µM
2           CCCCC1=C(C(=O)OC)CN(CCC)CC1 [F]     50.7 µM

Find IC50 (m4 receptor (Homo sapiens, UniProt P08173)) for the entry CCN1CCC(c2ccccc2)=C(C(=O)NC)C1 [D]
73.1 µM

Find IC50 (m4 receptor (Homo sapiens, UniProt P08173)) for the entry COC(=O)C1=C(C)CCN(C)C1 [E]
> 50 µM

====

# target: m3 receptor (Homo sapiens)
# Sequence (P20309 whole entry): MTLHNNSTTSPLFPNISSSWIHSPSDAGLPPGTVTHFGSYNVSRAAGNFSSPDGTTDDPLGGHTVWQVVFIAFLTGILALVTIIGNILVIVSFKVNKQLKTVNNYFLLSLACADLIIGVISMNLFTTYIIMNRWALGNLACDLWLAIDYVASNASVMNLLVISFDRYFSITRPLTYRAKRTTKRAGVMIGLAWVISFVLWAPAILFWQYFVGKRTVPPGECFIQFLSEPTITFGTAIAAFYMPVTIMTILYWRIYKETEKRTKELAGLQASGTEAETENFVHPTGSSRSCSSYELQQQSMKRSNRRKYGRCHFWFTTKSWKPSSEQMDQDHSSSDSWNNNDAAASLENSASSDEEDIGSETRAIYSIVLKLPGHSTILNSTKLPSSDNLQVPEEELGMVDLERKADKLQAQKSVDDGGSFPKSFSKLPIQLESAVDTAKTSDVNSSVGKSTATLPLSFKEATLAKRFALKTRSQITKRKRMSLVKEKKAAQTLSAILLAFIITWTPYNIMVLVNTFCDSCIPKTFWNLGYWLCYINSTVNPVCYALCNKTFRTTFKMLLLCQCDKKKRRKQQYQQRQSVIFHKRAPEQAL
measure: IC50
Number plus unit, in that order.

Illustrative cases are given below, each with its answer.
In [3]: df
Out[3]:
                    record_smiles  data_value
0  CCN1CCC(c2ccccc2)=C(C(=O)NC)C1     38.7 µM
1     CCCCC1=C(C(=O)OC)CN(CCC)CC1     14.9 µM
2          COC(=O)C1=C(C)CCN(C)C1       68 µM

Please examine the following record next.
Entry under review: CCN1CCC(c2ccccc2)=C(C(=O)N(C)C)C1 . Reported IC50?
8.99 µM

====

pIC50 values recorded for m5 receptor (Homo sapiens)
// returns pIC50 (minus log10 of molar concentration), number only

>>> print(df.to_string())
                             molecule  data_value
0     CCCCC1=C(C(=O)OC)CN(CCC)CC1 [F]        4.38
1          COC(=O)C1=C(C)CCN(C)C1 [E]        4.13
2  CCN1CCC(c2ccccc2)=C(C(=O)NC)C1 [D]        4.31

Please examine the following record next.
Entry under review: CCN1CCC(c2ccccc2)=C(C(=O)N(C)C)C1 [C] . Reported pIC50?
5.22

====

# pIC50 listing for each entry below
# target: m2 receptor (Homo sapiens)
# Construct: expressed in transfected cells; host or cells: CHO cells (membranes)
# experimental.protocol: [3H]-NMS receptor binding using membranes from CHO cells expressing cloned human muscarinic receptor m2
# particulars: [3H]-NMS 100 pM, pH 7.4, 120 minutes at 25° C.
// returns pIC50 (minus log10 of molar concentration), number only

Entry under review: CCCCC1=C(C(=O)OC)CN(CCC)CC1 . Reported pIC50?
5.27

Entry under review: CCN1CCC(c2ccccc2)=C(C(=O)NC)C1 . Reported pIC50?
4.46

====

pIC50 values recorded for m1 receptor (Homo sapiens)
// returns pIC50 (minus log10 of molar concentration), number only

Entry under review: CCN1CCC(c2ccccc2)=C(C(=O)NC)C1 . Reported pIC50?
4.68

Entry under review: CCN1CCC(c2ccccc2)=C(C(=O)N(C)C)C1 . Reported pIC50?
5.30

Entry under review: CCCCC1=C(C(=O)OC)CN(CCC)CC1 . Reported pIC50?
4.76

Entry under review: COC(=O)C1=C(C)CCN(C)C1 . Reported pIC50?
4.21

====

# target: m2 receptor (Homo sapiens, UniProt P08172)
# Sequence (P08172 1-466): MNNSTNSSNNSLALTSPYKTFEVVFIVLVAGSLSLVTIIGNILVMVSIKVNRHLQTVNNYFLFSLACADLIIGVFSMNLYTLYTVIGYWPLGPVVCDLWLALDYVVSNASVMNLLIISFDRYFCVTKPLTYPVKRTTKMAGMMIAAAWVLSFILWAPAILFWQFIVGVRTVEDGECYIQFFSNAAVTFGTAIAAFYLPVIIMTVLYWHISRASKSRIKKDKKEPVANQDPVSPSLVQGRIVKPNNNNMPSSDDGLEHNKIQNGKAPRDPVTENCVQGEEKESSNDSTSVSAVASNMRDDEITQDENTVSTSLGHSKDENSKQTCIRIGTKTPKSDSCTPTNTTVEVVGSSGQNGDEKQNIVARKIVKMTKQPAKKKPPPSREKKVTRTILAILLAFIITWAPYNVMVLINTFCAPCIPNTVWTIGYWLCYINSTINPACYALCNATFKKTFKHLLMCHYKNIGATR
measure: pIC50
// returns pIC50 (minus log10 of molar concentration), number only

Illustrative cases are given below, each with its answer.
>>> print(df.to_string())
                                   compound  data_value
0  CCN1CCC(c2ccccc2)=C(C(=O)OC(C)C)C1 [Example 4]        6.46
1     CCN1CCC(c2ccccc2)=C(C(=O)N(C)C)C1 [C]        4.91

Please examine the following record next.
Find pIC50 (m2 receptor (Homo sapiens, UniProt P08172)) for the entry COC(=O)C1=C(C)CCN(C)C1 [E]
4.98
